- testedTarget: Short transient receptor potential channel 6 (Mus musculus) (UniProt Q61143)
- Sequence (Q61143 whole entry, looked up): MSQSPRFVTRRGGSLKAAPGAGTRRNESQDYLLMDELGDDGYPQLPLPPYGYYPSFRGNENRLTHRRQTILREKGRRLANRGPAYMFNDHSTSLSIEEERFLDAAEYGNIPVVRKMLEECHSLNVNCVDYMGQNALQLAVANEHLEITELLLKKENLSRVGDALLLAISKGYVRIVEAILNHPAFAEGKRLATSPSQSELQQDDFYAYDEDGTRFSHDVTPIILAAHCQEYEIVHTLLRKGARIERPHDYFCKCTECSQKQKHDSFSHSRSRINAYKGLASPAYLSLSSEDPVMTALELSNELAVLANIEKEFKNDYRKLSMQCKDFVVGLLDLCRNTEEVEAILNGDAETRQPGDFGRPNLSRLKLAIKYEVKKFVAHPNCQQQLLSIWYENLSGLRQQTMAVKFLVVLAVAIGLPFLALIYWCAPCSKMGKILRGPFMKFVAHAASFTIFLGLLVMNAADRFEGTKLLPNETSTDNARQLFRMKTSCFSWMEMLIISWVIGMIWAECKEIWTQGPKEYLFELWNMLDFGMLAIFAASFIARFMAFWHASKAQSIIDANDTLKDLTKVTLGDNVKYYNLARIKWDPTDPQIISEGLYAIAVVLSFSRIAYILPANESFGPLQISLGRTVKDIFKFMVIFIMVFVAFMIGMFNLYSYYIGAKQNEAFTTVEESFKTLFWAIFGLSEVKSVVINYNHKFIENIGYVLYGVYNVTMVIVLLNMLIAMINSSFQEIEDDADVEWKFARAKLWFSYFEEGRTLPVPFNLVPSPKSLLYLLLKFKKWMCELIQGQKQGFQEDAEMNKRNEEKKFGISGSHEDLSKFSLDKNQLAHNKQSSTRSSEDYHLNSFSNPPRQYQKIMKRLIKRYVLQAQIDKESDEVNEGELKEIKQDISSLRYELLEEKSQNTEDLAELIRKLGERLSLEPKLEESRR
- assayName: TRPC6 blockade by TRPC4 inhibitor hits – cell-based, HEK293, membrane potential dye, duplicate, selectivity assay for TRPC4 inhibitor project, confirmation (AID 434948)
- protocolConditions: HEK293 TRPC6, membrane potential dye fluorescence, at 10 µM, stimulated with maximal-effect acetylcholine
Activity calls are given as the source filed them.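 How the source made its calls: active means active in primary screen and both duplicates, each dropping signal beyond three positive-control SD with fluorescence still positive; inactive means the rest.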
Result category, one only: active, inactive

See these solved cases before continuing.
compound=CCOc1cc2[nH]c(=S)n(C3CC3)c(=O)c2cc1OCC group=inactive
compound=COc1ccc(C(=O)NNC(=S)NC(=O)c2cccs2)cc1 group=inactive
compound=CCN1CCN(c2ccc(S(=O)(=O)N3CCCCC3)cc2NC(=O)c2cc3ccccc3o2)CC1 group=inactive

So what was the verdict on N=c1oc2ccc(Cl)cc2cc1C(=O)NC1CCCCCC1 in this test? inactive

So what was the verdict on Cc1cccc(NC(=O)c2cc([N+](=O)[O-])ccc2N2CCN(C)CC2)c1 in this test? inactive

So what was the verdict on CCCCn1c(NCc2ccc(N(C)C)cc2)nc2ccccc21 in this test? active

So what was the verdict on COc1cccc(Cn2c(Oc3ccccc3)nc3c2c(=O)n(C)c(=O)n3C)c1 in this test? inactive

So what was the verdict on NC(=O)c1nsc(C(=O)N(Cc2ccc(F)cc2)C(C(=O)NCC2CCCO2)c2ccc(O)cc2)c1N (centres undefined) in this test? inactive

So what was the verdict on Cc1ccc(NC(=S)NC2CC3CCC(C2)N3Cc2ccco2)c(C)c1 (centres undefined) in this test? inactive

So what was the verdict on OCCNCc1cc(Br)ccc1OCc1ccc(F)cc1 in this test? inactive

So what was the verdict on Cc1ccc(Cn2c(SCCN3CCCCC3)nc3c2c(=O)n(C)c(=O)n3C)cc1 in this test? inactive
